test system: KM-20L2; experiment: NCI tumour cell line growth inhibition, 48 h
Calls of active or inactive are those of the source. Cut-off read from the data, not from the text of the source: active = GI50 up to about 1.1 µM and inactive = higher.
Outcome codes: class 1 for active, class 0 for inactive

{"Compound": "COc1ccccc1NC(=O)CC(=O)N1N=C(C)C(/N=N/c2ccc(S(N)(=O)=O)cc2)C1=O (stereo not given)", "Category label": "class 0"}
{"Compound": "CCOc1ccc(NCc2cc(OC)c(OC)c(OC)c2)cc1", "Category label": "class 1"}
{"Compound": "CCCC(C)n1c(C)nc2c1C(=O)c1ccccc1C2=O (stereo not given)", "Category label": "class 0"}
{"Compound": "CCOc1ccccc1NC(=O)C(C#N)C1=C(Cl)C(=O)c2ccccc2C1=O (stereo not given)", "Category label": "class 0"}
{"Compound": "Clc1ccc(C[P+](c2ccccc2)(c2ccccc2)c2ccccc2)c(Cl)c1", "Category label": "class 0"}
{"Compound": "C/C=C1\\CN2CCc3c([nH]c4ccccc34)C2C=C1CCO (stereo not given)", "Category label": "class 0"}
{"Compound": "OC[C@H]1O[C@@H](n2cnc3cncnc32)[C@H](O)[C@@H]1O [NEBULARINE]", "Category label": "class 1"}
{"Compound": "C=C(CN(C)C)C(=O)c1ccc(OC)cc1", "Category label": "class 0"}
{"Compound": "CN(C)C=[N+]=[N-]", "Category label": "class 0"}
{"Compound": "COC(=O)CCC(NC(=S)N/N=C(\\C)c1ccccn1)C(=O)OC (stereo not given)", "Category label": "class 0"}
{"Compound": "CNC(=O)OCc1c2ccncc2c(C)c2c1[nH]c1ccc(OC)cc12", "Category label": "class 1"}
{"Compound": "CN(C)CCONC(=O)C12CC3CC(CC(C3)C1)C2", "Category label": "class 0"}
{"Compound": "Cc1ccc(S(=O)(=O)OCOS(=O)(=O)c2ccc(C)cc2)cc1", "Category label": "class 0"}
{"Compound": "O=C1CCC2(c3ccc(Cl)cc3)Nc3cc(Cl)ccc3N12 (stereo not given)", "Category label": "class 0"}
{"Compound": "CCCCCC(=O)N[C@H]1CCc2cc(OC)c(OC)c(OC)c2-c2ccc(SC)c(=O)cc21", "Category label": "class 1"}
{"Compound": "CN1C(OCc2ccccc2)c2c(ccc3c2OCO3)C2C=Cc3cc4c(cc3C21)OCO4 (stereo not given)", "Category label": "class 0"}
{"Compound": "Cc1nc([N+](=O)[O-])cn1CC(=N)N", "Category label": "class 0"}
{"Compound": "COc1ccc(C2=CN3CCC[C@H]3C=C2c2cc(O)c(OC)c(OC)c2)cc1OC", "Category label": "class 1"}
{"Compound": "CN(C)/N=C(/c1nc2ccc([N+](=O)[O-])cc2nc1O)C(O)c1ccco1 (stereo not given)", "Category label": "class 0"}
{"Compound": "C=CCO[C@H]1CC[C@@]2(C)C(CC[C@]3(C)C2CC=C2[C@@H]4[C@@H](C)C(C)CC[C@]4(C(=O)O)CCC23C)C1(C)C (stereo not given in full)", "Category label": "class 0"}
{"Compound": "Cc1ccc(C)c(N2C(=O)C(=O)C(c3nc4ccccc4s3)/C(=N\\c3cccc4c(=O)[nH][nH]c(=O)c34)C2=O)c1 (stereo not given)", "Category label": "class 0"}
{"Compound": "O=C1C=CC(=C(c2ccc(O)cc2)c2ccc(O)cc2)C=C1 [AURIN]", "Category label": "class 0"}
{"Compound": "COc1cc2c3c(c1OC)/C(=N/OS(=O)(=O)c1ccc(C)cc1)CC3N(S(=O)(=O)c1ccc(C)cc1)CC2 (stereo not given)", "Category label": "class 0"}
{"Compound": "CC(=O)O[C@H]1CC[C@@]2(C)C(=CC[C@@H]3C2CC[C@]2(C)Nc4nc5ccccc5cc4CC32)C1 (stereo not given in full)", "Category label": "class 0"}
{"Compound": "Cc1cc2c(=O)cc(-c3ccc(Cl)cc3)oc2c(C(=O)O)c1C", "Category label": "class 0"}
{"Compound": "Cc1cc(N(CCC#N)S(=O)(=O)c2ccccc2)ccc1/C=N/c1ccc(C(=O)O)cc1", "Category label": "class 0"}
{"Compound": "CCOC(=O)Cc1ccc2c(c1O)C(=O)c1c(ccc(CC(=O)OCC)c1O)C2=O", "Category label": "class 0"}
{"Compound": "COC(=O)c1ccc(Cl)cc1NC(=O)C1CCCCC1", "Category label": "class 0"}
{"Compound": "NS(=O)(=O)c1ccc(NC(=O)c2cccc3c(Nc4ccc(S(N)(=O)=O)cc4)c4ccccc4nc23)cc1", "Category label": "class 0"}
{"Compound": "CCOC(=O)C(C)c1c(C(=O)c2ccc(C)nc2)c2ccccc2n1C (stereo not given)", "Category label": "class 0"}
{"Compound": "COC1OC(COS(=O)(=O)c2ccc(C)cc2)C(O)C(OS(=O)(=O)c2ccc(C)cc2)C1OS(=O)(=O)c1ccc(C)cc1 (stereo not given)", "Category label": "class 0"}
{"Compound": "CCOC(=O)N1CCc2cc(OC)c(OC)cc2/C1=C/c1ccc(OC)c(OC)c1", "Category label": "class 0"}
{"Compound": "O=C(/C=C/c1ccccc1)/C=C/c1ccccc1", "Category label": "class 0"}
{"Compound": "O=C1Sc2sc(=S)sc2SC1c1ccccc1 (stereo not given)", "Category label": "class 0"}
{"Compound": "Cc1ccc(NC(=O)COC(=O)c2cccc3c(=O)c4ccccc4[nH]c23)cc1", "Category label": "class 0"}
{"Compound": "Cc1nn(C(=O)CC(=O)Nc2ccc(Cl)cc2)c(C)c1/N=N/c1ccccc1C(=O)O", "Category label": "class 0"}
{"Compound": "O=P1(NCCCl)OCCC(OO)N1CCCl (stereo not given)", "Category label": "class 0"}
{"Compound": "COc1c2c(c(OC)c3c(=O)cc(C/C(=N/NC(=O)C[n+]4ccccc4)C(=O)Nc4cc(C)ccc4C)oc13)OCO2", "Category label": "class 0"}
{"Compound": "C[Si](C)(C)OC1CC(=O)OC1n1cc(F)c(=O)[nH]c1=O (stereo not given)", "Category label": "class 0"}
{"Compound": "c1ccc2c(CN3CCC(C4CCN(Cc5cccc6ccccc56)CC4)CC3)cccc2c1", "Category label": "class 0"}
